- testedOn: GABARAPL2 (Homo sapiens)
- Sequence (P60520 whole entry): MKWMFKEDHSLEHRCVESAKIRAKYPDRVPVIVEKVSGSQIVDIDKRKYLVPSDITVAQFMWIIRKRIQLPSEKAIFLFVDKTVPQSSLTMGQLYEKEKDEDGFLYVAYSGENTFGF
- conditionContext: residue A19; GABARAPL2:ligand molar ratio 1:2
parameterMeasured: CSP (ppm)
A number alone suffices; assume ppm.

Query: Request the reported CSP associated with O=C1Nc2ccc(I)cc2C1=Cc1cc(Br)c(O)c(Br)c1
Response: 0.086

Query: Which value of CSP has been reported for O=C1Nc2ccc(Br)cc2C1=Cc1cc(O)c(O)c(Br)c1 in the records?
Response: 0.023

Query: Quick check: CSP of Cc1ccc(C(=O)N(CCCN)[C@@H](c2nc3cc(Cl)ccc3c(=O)n2Cc2ccccc2)C(C)C)cc1 ?
Response: 0.00171

Query: Quick one: CSP for O=c1cc(-c2ccccc2)c2c(O)cc(O)cc2o1 ?
Response: 0.010
